Reported cytotoxicity at 10 µM values for the following molecules.
methodSummary: Toxicity liver stage against HepG2, at 10uM
Type: cell-based
Set-up: test concentration 10 uM, cell line HepG2-A16-CD81EGFP
experimentalSetup: human, HepG2-A16-CD81EGFP cells; read-out: INHIBITION

- molecule: "O=C(Nc1ccccc1)C1CN(Cc2ccco2)CC12CCOCC2 (stereo unspecified)"
  experimentalEndpoint: "cytotoxicity at 10 µM"
  reportedValue: "-3.2%"

Entry O=C(NC[C@]1(O)CCN(Cc2ccsc2)C[C@H]1O)c1c[nH]cn1 : reported cytotoxicity at 10 µM = ?
0.514%

Entry COc1cc(OC)cc(N2CCC(NC(=O)c3ccc[nH]3)CC2)c1 : reported cytotoxicity at 10 µM = ?
-4.83%

Entry CNC(=O)c1ccc(CNc2ccncc2Cl)cc1 : reported cytotoxicity at 10 µM = ?
17.7%

Entry CCN(Cc1ccc2c(c1)OCCO2)C(=O)NCc1nc(C)cs1 : reported cytotoxicity at 10 µM = ?
1.47%

Entry CNc1cc(C2CN(Cc3cccnc3NC)CCO2)nc(C)n1 (stereo unspecified) : reported cytotoxicity at 10 µM = ?
2.93%

Taken from ChEMBL document CHEMBL4513216.
